System: A549 NSCLC
assay method text: NCI tumour cell line growth inhibition, 48 h
reported property: TGI

Sample answers from the record:
- Cc1ccccc1NC(=O)/C=N/O: > 100 µM
- C[P+](C)(C)C: > 100 µM
- C1OC1CN1CCN(CC2CO2)CC1 (stereo unspecified): > 100 µM
- COc1cccc(-c2nn(-c3ccccc3)cc2-c2ccnc(NCCCNC(=O)c3cccc(C(F)(F)F)c3)c2)c1: 16.2 µM

Give me measured TGI, please, for this compound: COCCOC(=O)NCn1cc(-c2ccccc2)nn1
> 100 µM

Give me measured TGI, please, for this compound: CC(C)(C)c1cc2c(c(C(C)(C)C)c1O)CC(=O)O2
> 100 µM

====

Reported TGI by item:
System: HS 578T breast
assay method text: NCI tumour cell line growth inhibition, 48 h

- CCOc1ccccc1NC(=O)C(=O)C(/C(=N/N)C(=O)OC)c1nc2ccc([N+](=O)[O-])cc2[nH]c1=O (stereo not given): > 100 µM
- O=C1c2c(ccc3c2CCC3)CC1Cc1ccc2c(c1)CCC2 (stereo not given): 61.6 µM
- COc1cccc(/C=C/c2nc3c(cnn3-c3ccccc3)c(=O)[nH]2)c1: > 100 µM
- CCOC(=O)c1nc2ccccc2n(CC)c1=O: > 100 µM

Give me measured TGI, please, for this compound: COC(=O)C1CCC(=O)N1CN(C(C)=O)c1cc(OC)ccc1OC (stereo not given)
> 100 µM

====

Reported TGI by item:
Test system: SF-295 CNS
assay method text: NCI tumour cell line growth inhibition, 48 h

Give me measured TGI, please, for this compound: O=C(O)C1OC1C(=O)O (stereo not drawn)
> 100 µM

Give me measured TGI, please, for this compound: NC1C=NNC1=O (stereo not drawn)
> 100 µM

Give me measured TGI, please, for this compound: O=C1CNC(=O)/C(=C/c2c[nH]c3ccccc23)N1
> 100 µM

====

Reported TGI by item:
Test system: SNB-19 CNS
assay method text: NCI tumour cell line growth inhibition, 48 h

Sample answers from the record:
* COC(=O)c1cc(OS(=O)(=O)C(F)(F)F)c(=O)n2c1CCCC2 | > 100 µM
* CC1=C(C(=O)NCc2ccccc2)C(c2ccc(Cl)c(Cl)c2)C(C(=O)NCc2ccccc2)=C(C)N1 | > 100 µM
* CC[C@H](C)C1=C(OC(C)=O)[N@+]2([O-])Oc3ccc(-c4c(O)c(O)c(-c5ccc(OC(C)=O)cc5)c(OC(C)=O)c4OC(C)=O)cc3O[C@]2([C@@H](C)CC)C(=O)N1O | > 50 µM
* O=C1/C(=C/c2ccc3c(c2)OCCO3)CCC/C1=C\c1ccc2c(c1)OCCO2 | > 100 µM
* COc1ccc(C(=O)NC2=C(Cl)C(=O)c3ccccc3C2=O)cc1 | 17.4 µM

Give me measured TGI, please, for this compound: CNC(=O)c1cc(Oc2cccc3nc(NC(=O)Nc4cc(C(F)(F)F)cc(C(F)(F)F)c4)ccc23)ccn1
38 µM

Give me measured TGI, please, for this compound: COC(=O)[C@H](Cc1ccccc1)NC(=O)N(CCC#N)CCCCN(CCC#N)C(=O)N[C@@H](Cc1ccccc1)C(=O)OC
> 100 µM

Give me measured TGI, please, for this compound: COC(=O)CN(CC(O)C(NC(C)=O)C(O)C=O)C(=O)OCc1ccccc1 (configuration not stated)
> 100 µM

Every entry's value here was drawn from PubChem BioAssay (NCI).
